- Details: 288.15 K; 101.33 kPa; Liquid; Vibrating tube method
Known mass density of a selection of molecules
# value in kg/m3; strip the unit string

CCC(C)=O 810.328
CCCCCl 891.747
CCCCCCC 688.588

Q) Tell us which mass density value is on record for CCCC(C)=O
A) 811.491

* * *

- Details: 303.15 K; 101.33 kPa; Liquid; Vibrating tube method
Value Kind: mass density (kg/m3)
# value in kg/m3; strip the unit string

Some molecules with recorded mass density:
CCCCCl 875.099
CCCC(C)=O 796.955
CCCCCCC 675.838

Let us move to another entry and its mass density.
Q) Tell us which mass density value is on record for CCC(C)=O
A) 794.629

* * *

Known mass density of a selection of compounds
- Details: 313.15 K; 101.33 kPa; Liquid; Vibrating tube method
# value in kg/m3; strip the unit string

Some compounds with recorded mass density:
Compound	Measure Unit	Result Value
CCCCCl [1-chlorobutane]	kg/m3	863.833
CCC(C)=O [butanone]	kg/m3	784.008
CCCCCCC [heptane]	kg/m3	665.838

Let us move to another entry and its mass density.
Q) Tell us which mass density value is on record for CCCC(C)=O [pentan-2-one]
A) 787.16
